Assay: Equilibrium surface tension (EST), Wilhelmy plate method, saturated aqueous solutions
Assay type: physicochemical
Conditions: saturated solution in distilled water, undissolved material filtered off; Wilhelmy plate
observable: Limiting EST (dyne/cm)

[a] CCCCC(CC)CNC(=O)C(O)C(O)C(=O)NCC(CC)CCCC [Ex 5, N,N′-Di-2-ethylhexyl L-tartaramide]
[b] CCCCCCNC(=O)[C@H](O)[C@@H](O)C(=O)NCCCCCC [Ex 8, N,N′-Di-n-hexyl L-tartaramide]
For the pair a and b , which member has the lower Limiting EST number? State your choice using its label.
a
(a: 41.4 dyne/cm, b: 67.8 dyne/cm)

[1] O=C(NC1CCCCC1)[C@H](O)[C@@H](O)C(=O)NC1CCCCC1 [Ex 9, N,N′-Di-cyclohexyl L-tartaramide]
[2] CCCCCCC(C)NC(=O)C(O)C(O)C(=O)NC(C)CCCCCC [Ex 2, N,N′-Di-1-methylheptyl L-tartaramide]
For the pair 1 and 2 , which member has the lower Limiting EST number? State your choice using its label.
2
(2: 39.5 dyne/cm, 1: 67.9 dyne/cm)

[a] CCCNC(=O)[C@H](O)[C@@H](O)C(=O)NCCC [Ex 6, N,N′-Di-n-propyl L-tartaramide]
[b] CC(C)CCCC(C)NC(=O)C(O)C(O)C(=O)NC(C)CCCC(C)C [Ex 3, N,N′-Di-1,5-dimethylhexyl L-tartaramide]
For the pair a and b , which member has the lower Limiting EST number? State your choice using its label.
b

[a] CCCCCC(C)NC(=O)C(O)C(O)C(=O)NC(C)CCCCC [Ex 4, N,N′-Di-1-methylhexyl L-tartaramide]
[b] CCCCNC(=O)[C@H](O)[C@@H](O)C(=O)NCCCC [Ex 7, N,N′-Di-n-butyl L-tartaramide]
In the pair a and b , the larger recorded Limiting EST belongs to which? State your choice using its label.
b

====

Test: Concentration of surfactant in filtered saturated solution in distilled water
Format: physicochemical
Settings: shaken ~24 hours
observable: Concentration of Surfactant in Solution

Solved entries:
> print(dat)
                                   compound      result
1  CCCCCC(C)NC(=O)C(O)C(O)C(=O)NC(C)CCCCC [Ex 4, N,N′-Di-1-methylhexyl L-tartaramide]  <0.1 wt. %
2  CCCNC(=O)[C@H](O)[C@@H](O)C(=O)NCCC [Ex 6, N,N′-Di-n-propyl L-tartaramide]  <1.0 wt. %
3  O=C(NC1CCCCC1)[C@H](O)[C@@H](O)C(=O)NC1CCCCC1 [Ex 9, N,N′-Di-cyclohexyl L-tartaramide]  <0.1 wt. %

The compound listed as CCCCC(CC)CNC(=O)C(O)C(O)C(=O)NCC(CC)CCCC [Ex 5, N,N′-Di-2-ethylhexyl L-tartaramide] has a reported Concentration of Surfactant in Solution of <0.1 wt. %

====

Test: Concentration of surfactant in filtered saturated solution in distilled water
Assay type: physicochemical
Conditions: shaken ~24 hours
Measured Concentration of Surfactant in Solution, listed per entry.

Solved entries:
> print(dat)
                                   molecule      result
1  CC(C)CCNC(=O)[C@H](O)[C@@H](O)C(=O)NCCC(C)C [Ex 1, N,N′-Di-iso-pentyl L-tartaramide]  <1.5 wt. %
2  CCCCCCC(C)NC(=O)C(O)C(O)C(=O)NC(C)CCCCCC [Ex 2, N,N′-Di-1-methylheptyl L-tartaramide]  <0.1 wt. %
3  CCCCNC(=O)[C@H](O)[C@@H](O)C(=O)NCCCC [Ex 7, N,N′-Di-n-butyl L-tartaramide]  <1.0 wt. %
4  CCCCCCNC(=O)[C@H](O)[C@@H](O)C(=O)NCCCCCC [Ex 8, N,N′-Di-n-hexyl L-tartaramide]  <0.1 wt. %

The molecule listed as CC(C)CCCC(C)NC(=O)C(O)C(O)C(=O)NC(C)CCCC(C)C [Ex 3, N,N′-Di-1,5-dimethylhexyl L-tartaramide] has a reported Concentration of Surfactant in Solution of <0.1 wt. %
